All figures here come from patent US20230272056A1.

molecular target: T1, human LAP-TGFB1 Fc fusion (human); test: SPR pH 7.4, antigen captured on Fab 54BLH
T1 construct: also called human LAP-TGFβ1-Fc; human LAP-TGFβ-Fc isoform 1
T1 sequence (chain, as listed by the source limits assumed): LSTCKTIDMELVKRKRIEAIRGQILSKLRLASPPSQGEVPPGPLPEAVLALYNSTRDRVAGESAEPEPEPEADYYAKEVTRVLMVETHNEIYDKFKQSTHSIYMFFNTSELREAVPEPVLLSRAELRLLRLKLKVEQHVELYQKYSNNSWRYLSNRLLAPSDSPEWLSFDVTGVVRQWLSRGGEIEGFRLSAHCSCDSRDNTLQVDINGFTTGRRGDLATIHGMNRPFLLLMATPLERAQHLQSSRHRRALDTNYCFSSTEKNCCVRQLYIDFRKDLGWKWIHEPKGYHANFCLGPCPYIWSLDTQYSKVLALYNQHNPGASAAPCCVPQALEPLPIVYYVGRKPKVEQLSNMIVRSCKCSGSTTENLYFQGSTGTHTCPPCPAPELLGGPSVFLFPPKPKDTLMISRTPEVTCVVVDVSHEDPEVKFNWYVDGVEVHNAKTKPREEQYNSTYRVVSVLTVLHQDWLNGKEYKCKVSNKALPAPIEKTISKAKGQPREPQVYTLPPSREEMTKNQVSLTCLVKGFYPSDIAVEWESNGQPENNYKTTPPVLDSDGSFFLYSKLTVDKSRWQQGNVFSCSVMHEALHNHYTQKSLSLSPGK
RECORDED_METRIC: pKd
Please report pKd as the negative decimal logarithm of the molar concentration, giving only the number.

Consider the worked cases shown below.
| BINDER | REPORTED |
| --- | --- |
| 16BLM (antibody, human IgG1, kappa, L234A L235A, V domains shown, IgG1 L234A L235A D265S/kappa; also called 79BLH; 52BMD) VH: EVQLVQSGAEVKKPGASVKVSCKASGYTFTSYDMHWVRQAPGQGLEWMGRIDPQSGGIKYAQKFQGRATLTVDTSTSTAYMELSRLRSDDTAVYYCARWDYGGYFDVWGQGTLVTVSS VL: DIQMTQSPSSLSASVGDRVTITCRASQDIYNYLNWYQQKPGKAVKLLIYYTSVLETGVPSRFSGSGSGTDYTLTISSLQPEDFATYFCQQGDTLPWTFGQGTKLEIKR | 10.42 |
| 63BLH (Fab, V domains shown, also called 15BLM Fab; 015BLM Fab) VH: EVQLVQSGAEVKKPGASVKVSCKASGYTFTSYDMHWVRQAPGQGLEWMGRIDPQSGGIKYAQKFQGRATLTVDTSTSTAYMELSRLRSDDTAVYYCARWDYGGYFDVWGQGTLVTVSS VL: DIQMTQSPSSLSASVGDRVTITCRASQDIYNYLNWYQQKPGKAVKLLIYYTSRLETGVPSRFSGSGSGTDYTLTISSLQPEDFATYFCQQGDTLPWTFGQGTKLEIK | 9.45 |

Now look at this entry.
For the binder shown here, 66BLH (Fab, V domains shown, also called 18BLM Fab) VH: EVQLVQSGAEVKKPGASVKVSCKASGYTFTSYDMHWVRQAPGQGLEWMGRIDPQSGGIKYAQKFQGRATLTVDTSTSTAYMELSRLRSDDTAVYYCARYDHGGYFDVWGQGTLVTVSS VL: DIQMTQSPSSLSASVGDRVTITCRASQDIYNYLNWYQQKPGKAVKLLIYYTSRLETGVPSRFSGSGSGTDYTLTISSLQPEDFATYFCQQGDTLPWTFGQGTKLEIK , give the reported pKd.
8.50
